# Test system: PXR homodimer (NR concentration 270 nM)
# assayName: PBM binding z-score (relative to random genomic background probes); higher = stronger binding; sequences stand for … in GC…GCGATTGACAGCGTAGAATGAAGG
Recorded measurements of PBM binding z-score, one per entry

>  <sequenceRecord>
TCTGCTAGGTCAACGATCGTCAGCTAATCTGCTA

>  <systemTested>
PXR homodimer (NR concentration 270 nM)

>  <PBM binding z-score>
-0.972

$$$$
>  <sequenceRecord>
CGTCCAAAGTCATAGGAGGTCAGTGAAGACAGAT

>  <systemTested>
PXR homodimer (NR concentration 270 nM)

>  <PBM binding z-score>
1.12

$$$$
>  <sequenceRecord>
CCTTACGGGTCACTGACAGGTTACAGCATTTGGA

>  <systemTested>
PXR homodimer (NR concentration 270 nM)

>  <PBM binding z-score>
0.0317

$$$$
>  <sequenceRecord>
TCTTATAGGTAAATGCTAGGTGAAAGTCCGATCT

>  <systemTested>
PXR homodimer (NR concentration 270 nM)

>  <PBM binding z-score>
0.588

$$$$
>  <sequenceRecord>
ATATGTAGGTTAGCTGGGGTCGTTCAGACTAGGC

>  <systemTested>
PXR homodimer (NR concentration 270 nM)

>  <PBM binding z-score>
1.3

$$$$
>  <sequenceRecord>
TCATATAGGTAAAAGGTGTAAGTCGGTGTGGTAA

>  <systemTested>
PXR homodimer (NR concentration 270 nM)

>  <PBM binding z-score>
0.592

$$$$
